Test system: PSMA + PC-3 PiP and PSMA − PC-3 flu tumor xenografts
Details: 21 H post-injection
RESULT TYPE: Biodistribution: liver (% ID/g)
Write down the numeric answer in % ID/g and omit the unit.

O=C(O)CC[C@H](NC(=O)N[C@@H](CCCCNC(=O)c1ccc([131I])cc1)C(=O)O)C(=O)O [[^131I]YC-I-27]: 0.56
O=C(O)CC[C@H](NC(=O)N[C@@H](CCC(=O)NCCc1ccc([131I])cc1)C(=O)O)C(=O)O [[^131I]HS-549]: 1.86

Enquiry: Give PSMA + PC-3 PiP and PSMA − PC-3 flu tumor xenografts Biodistribution: liver for N=C(N)NCc1ccc(C(=O)NCCCCC(NC(=O)CCCCCCC(=O)NCCCC[C@H](NC(=O)N[C@@H](CCC(=O)O)C(=O)O)C(=O)O)C(=O)O)cc1[211At] (stereo partly drawn) [[^211At] labeled PSMA-904]
Return: 0.59

Enquiry: Give PSMA + PC-3 PiP and PSMA − PC-3 flu tumor xenografts Biodistribution: liver for N=C(N)NCc1ccc(C(=O)NCCCCC(NC(=O)CCCCCCC(=O)NCCCC[C@H](NC(=O)N[C@@H](CCC(=O)O)C(=O)O)C(=O)O)C(=O)O)cc1[131I] (stereo partly drawn) [[^131I] labeled PSMA-904]
Return: 0.24

Enquiry: Give PSMA + PC-3 PiP and PSMA − PC-3 flu tumor xenografts Biodistribution: liver for O=C(O)CC[C@H](NC(=O)N[C@@H](CCC(=O)NCCc1ccc([211At])cc1)C(=O)O)C(=O)O [[^211At]HS-549]
Return: 0.89

Enquiry: Give PSMA + PC-3 PiP and PSMA − PC-3 flu tumor xenografts Biodistribution: liver for N=C(N)NCc1ccc(C(=O)NCCCC[C@H](NC(=O)N[C@@H](CCC(=O)O)C(=O)O)C(=O)O)cc1[131I] [[^131I] labeled 7 (PSMA-620)]
Return: 0.33

Data provenance is patent US20200231614A1.
